- EXPERIMENTAL_TARGET: LsrK (Salmonella typhimurium, UniProt Q8ZKQ6)
- Sequence (Q8ZKQ6 whole entry): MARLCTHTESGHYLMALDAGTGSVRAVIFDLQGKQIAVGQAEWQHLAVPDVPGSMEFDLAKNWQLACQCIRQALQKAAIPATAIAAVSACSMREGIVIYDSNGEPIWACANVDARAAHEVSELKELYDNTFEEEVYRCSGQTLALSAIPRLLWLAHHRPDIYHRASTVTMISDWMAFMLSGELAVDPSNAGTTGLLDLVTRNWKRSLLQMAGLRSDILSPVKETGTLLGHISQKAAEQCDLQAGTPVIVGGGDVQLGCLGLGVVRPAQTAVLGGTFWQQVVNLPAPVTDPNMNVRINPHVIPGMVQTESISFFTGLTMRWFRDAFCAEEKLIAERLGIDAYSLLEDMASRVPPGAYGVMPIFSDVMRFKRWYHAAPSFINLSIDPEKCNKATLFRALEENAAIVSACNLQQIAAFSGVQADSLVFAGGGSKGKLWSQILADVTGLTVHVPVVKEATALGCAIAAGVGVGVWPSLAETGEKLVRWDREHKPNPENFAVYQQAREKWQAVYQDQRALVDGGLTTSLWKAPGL
- TEST_SUMMARY: biochemical
- Assay type: biochemical, S. typhimurium
Where a name gives a salt, the structure may show the parent alone.
Listed below: inhibition at 50 µM values for each entry.
Include the unit after the number when you answer.

1. CNCC[C@H](Oc1cccc2ccccc12)c1cccs1 [DULOXETINE HYDROCHLORIDE] = 1%
2. COc1ccc(-c2coc3cc(O)ccc3c2=O)c(O)c1O [KOPARIN] = 118%

Query: Give inhibition at 50 µM for COC(=O)c1cc(O)c(=O)c2c(O)c(O)ccc2c1
Reply: 112%

Query: Give inhibition at 50 µM for Cc1ccc(C(=O)Nc2ccc(S(=O)(=O)O)c3cc(S(=O)(=O)O)cc(S(=O)(=O)O)c23)cc1NC(=O)c1cccc(NC(=O)Nc2cccc(C(=O)Nc3cc(C(=O)Nc4ccc(S(=O)(=O)O)c5cc(S(=O)(=O)O)cc(S(=O)(=O)O)c45)ccc3C)c2)c1 [SURAMIN]
Reply: 110%

Query: Give inhibition at 50 µM for C[C@@H]1CC[C@@]23CCC4(C)[C@@](C=CC5[C@@]6(C)CCC(=O)C(C)(C)C6CC[C@]54C)(OC2=O)C3[C@H]1C (stereo partly drawn) [3-OXOURSAN (28-13)OLIDE]
Reply: 1%

Query: Give inhibition at 50 µM for CC(=O)NS(=O)(=O)c1ccc(N)cc1 [SULFACETAMIDE]
Reply: 0%

---

- EXPERIMENTAL_TARGET: UniProt Q8ZKQ6
- TEST_SUMMARY: biochemical
- Type: biochemical, S. typhimurium
Counter-ions that a name gives are not always drawn.
QUANTITY_MEASURED: inhibition at 50 µM (%)
Give just the numeric value; % need not be written.

Some molecules with recorded inhibition at 50 µM:
1) O=C(O)c1cc(-c2ccc(F)cc2F)ccc1O [DIFLUNISAL] = 5
2) CCC[C@@H]1C[C@@H](C(=O)N[C@@H]([C@H]2O[C@H](SC)[C@H](O)[C@@H](O)[C@H]2O)[C@@H](C)O)N(C)C1 [LINCOMYCIN HYDROCHLORIDE] = 0
3) O=C1O[C@H](CO)[C@@H](O)[C@H](O)[C@H]1O [GLUCONOLACTONE] = 0
4) CC(COc1ccccc1)N(CCCl)Cc1ccccc1 (centres unmarked) [PHENOXYBENZAMINE HYDROCHLORIDE] = 1

Next:
Query: Answer briefly: inhibition at 50 µM recorded on UniProt Q8ZKQ6 for CC(=O)Oc1ccccc1C(=O)O [ASPIRIN]
Reply: 0

---

Listed below: inhibition at 50 µM values for each entry.
- EXPERIMENTAL_TARGET: LsrK (Salmonella typhimurium)
- TEST_SUMMARY: biochemical
- Format: biochemical, S. typhimurium
Where a name gives a salt, the structure may show the parent alone.
Give just the numeric value; % need not be written.

1) C=CC1=C(C)c2cc3[nH]c(cc4nc(cc5[nH]c(cc1n2)c(C)c5CCC(=O)O)C(CCC(=O)O)=C4C)c(C)c3C=C = 100
2) COc1cc(O)cc(OC)c1OC [ANTIAROL] = 21
3) C[C@]12CC[C@H]3C(=CCc4cc(O)ccc43)[C@@H]1CCC2=O = 1
4) O=c1c(O)c(-c2ccc(O)cc2O)oc2cc(O)cc(O)c12 = 154

Query: Give inhibition at 50 µM for COc1ccc(Cc2nccc3cc(OC)c(OC)cc23)cc1OC [PAPAVERINE HYDROCHLORIDE]
Reply: 1

Query: Give inhibition at 50 µM for O=C(O[C@@H]1Cc2c(O)cc(O)cc2O[C@@H]1c1cc(O)c(=O)c2c(O)c(O)cc([C@H]3Oc4cc(O)cc(O)c4C[C@H]3O)c2c1)c1cc(O)c(O)c(O)c1
Reply: 129

Query: Give inhibition at 50 µM for C[C@H]1[C@H](NC(=O)/C(=N\OC(C)(C)C(=O)O)c2csc(N)n2)C(=O)N1S(=O)(=O)O
Reply: 1

Query: Give inhibition at 50 µM for O=c1c(O)cc([C@H]2Oc3cc(O)cc(O)c3C[C@H]2O)cc2c([C@H]3Oc4cc(O)cc(O)c4C[C@H]3O)cc(O)c(O)c12
Reply: 133

---

- EXPERIMENTAL_TARGET: LsrK (Salmonella typhimurium)
- TEST_SUMMARY: biochemical
- Format: biochemical, S. typhimurium
Where a name gives a salt, the structure may show the parent alone.
Listed below: inhibition at 50 µM values for each entry.
Give just the numeric value; % need not be written.

Some compounds with recorded inhibition at 50 µM:
1) Cc1noc(NS(=O)(=O)c2ccc(N)cc2)c1C = 1
2) C[C@@H]1C/C=C/C=C/C=C/C=C/[C@H](O[C@@H]2O[C@H](C)[C@@H](O)[C@H](N)[C@@H]2O)C[C@@H]2O[C@](O)(C[C@@H](O)C[C@H]3O[C@@H]3/C=C/C(=O)O1)C[C@H](O)[C@H]2C(=O)O = 12
3) C=C1C[C@@H]2[C@H](CC[C@]3(C)C(=O)CC[C@@H]23)[C@@]2(C)C=CC(=O)C=C12 = 11
4) OC(CCN1CCCC1)(c1ccccc1)C1CCCCC1 (stereo not drawn) [PROCYCLIDINE HYDROCHLORIDE] = 0
5) Nc1nc(N)c2nc(-c3ccccc3)c(N)nc2n1 = 0

Query: Give inhibition at 50 µM for CCN1CCN(C(=O)N[C@@H](C(=O)N[C@@H]2C(=O)N3C(C(=O)O)=C(CSc4nnnn4C)CS[C@H]23)c2ccc(O)cc2)C(=O)C1=O [CEFOPERAZONE SODIUM]
Reply: 0

Query: Give inhibition at 50 µM for CC(C)(Oc1ccc(CCNC(=O)c2ccc(Cl)cc2)cc1)C(=O)O [BEZAFIBRATE]
Reply: 2

Query: Give inhibition at 50 µM for CC(C)[C@@H](C)/C=C/[C@@H](C)[C@H]1CC[C@H]2C3=CC=C4C[C@@H](O)CC[C@]4(C)[C@H]3CC[C@]12C
Reply: 0

Query: Give inhibition at 50 µM for Nc1nc2c(c(=O)[nH]1)N=C(CNc1ccc(C(=O)N[C@@H](CCC(=O)O)C(=O)O)cc1)CN2 [DIHYDROFOLIC ACID]
Reply: 49

---

Listed below: Inhibition (%) values for each entry.
- EXPERIMENTAL_TARGET: LsrK (Salmonella typhimurium, UniProt Q8ZKQ6)
- TEST_SUMMARY: biochemical
- Format: biochemical, S. typhimurium
- STATED_CONDITIONS: 50 µM
Hey, just send me the number, nothing else.

1) COc1cc2c(cc1OC)-c1c(oc3cc(O)cc(O)c3c1=O)CO2 = 1
2) C=CCc1cc(OC)c2c(c1OC)OCO2 = 1
3) O=c1cc(-c2ccc(O)cc2)oc2ccc(O)cc12 [6.4'-DIHYDROXYFLAVONE] = 0

Query: Answer briefly: Inhibition (%) recorded on LsrK (Salmonella typhimurium, UniProt Q8ZKQ6) for COc1ccc(-c2oc3ccccc3c(=O)c2O)cc1OC [3-HYDROXY-3'.4'-DIMETHOXYFLAVONE]
Reply: 0

Query: Answer briefly: Inhibition (%) recorded on LsrK (Salmonella typhimurium, UniProt Q8ZKQ6) for O=C(O[C@@H]1Cc2c(O)cc(O)cc2O[C@@H]1c1ccc(O)c(O)c1)c1cc(O)c(O)c(O)c1 [EPICATECHIN MONOGALLATE]
Reply: 86

Query: Answer briefly: Inhibition (%) recorded on LsrK (Salmonella typhimurium, UniProt Q8ZKQ6) for C[N+]1(C)CCOC(O)(c2ccc(-c3ccc(C4(O)C[N+](C)(C)CCO4)cc3)cc2)C1.[Br-].[Br-] (centres unmarked) [HEMICHOLINIUM BROMIDE]
Reply: 1

Query: Answer briefly: Inhibition (%) recorded on LsrK (Salmonella typhimurium, UniProt Q8ZKQ6) for C=C[C@@](C)(O)CC[C@H]1C(=C)C[C@H](O)[C@H]2C(C)(C)CCC[C@]12C
Reply: 1

Query: Answer briefly: Inhibition (%) recorded on LsrK (Salmonella typhimurium, UniProt Q8ZKQ6) for CC1=C(/C=C/C(C)=C/C=C/C(C)=C/C=C/C=C(C)/C=C/C=C(C)/C=C/C2=C(C)C(=O)CCC2(C)C)C(C)(C)CCC1=O [CANTHAXANTHIN (euglenanone), CANTHAXANTHIN]
Reply: 2

---

- EXPERIMENTAL_TARGET: LsrK (Salmonella typhimurium)
- TEST_SUMMARY: biochemical
- Type: biochemical, S. typhimurium
Listed below: inhibition at 50 µM values for each entry.
Give just the numeric value; % need not be written.

Some molecules with recorded inhibition at 50 µM:
1. Cc1ccnc(NS(=O)(=O)c2ccc(N)cc2)n1 = 2
2. Cn1cnc2c1c(=O)[nH]c(=O)n2C = 0
3. O=C(Oc1cccc2cccnc12)c1ccccc1 = 0
4. C[C@@H]1O[C@@H](Oc2c(-c3ccc(O)c(O)c3)oc3cc(O)cc(O)c3c2=O)[C@H](O)[C@H](O)[C@H]1O = 2

Next:
Query: Give inhibition at 50 µM for CCCOc1ccc2nc(NC(=O)OC)[nH]c2c1
Reply: 2
